- tested.on: Pro-Link-tagged Human GLP-1R (human, UniProt P43220 24-463)
- assay.comment: cell-based or functional assay; also: reference of the scale not given here
// returns false (0) unless hGLP1R B-Arrestin2 % Top is strictly below 30%, in which case true (1)

Solved cases (8 shown):
{"columns": ["binder", "group"],
 "data": [
  ["XXEGTFTSDYSIXLDXKAQXEFIEYLIAGGPSSGAPPPS (D-Tyr1, Aib2, αMeL13, Orn16, K17 conjugated to (2-[2-(2-Amino-ethoxy)-ethoxy]-acetyl)2-(γ-Glu)-CO-(CH2)16-CO2H, Aib20, C-terminal amide (NH2)) [Example 368]", "true (1)"],
  ["XXEGTFTSDYSIXLDXKAQXAFIXYLIAGGPSSGAPPPS (D-Tyr1, Aib2, αMeL13, Orn16, K17 conjugated to (2-[2-(2-Amino-ethoxy)-ethoxy]-acetyl)2-(γ-Glu)-CO-(CH2)16-CO2H, Aib20, D-Glu24, C-terminal amide (NH2)) [Example 363]", "true (1)"],
  ["XXEGTFTSDYSIXLDXKAQXEFIEYLIAGGPSSG (D-Tyr1, Aib2, αMeL13, Orn16, K17 conjugated to (2-[2-(2-Amino-ethoxy)-ethoxy]-acetyl)2-(γ-Glu)-CO-(CH2)18-CO2H, Aib20, C-terminal amide (NH2)) [Example 370]", "true (1)"],
  ["XXEGTFTSDYSIXLDXKAQXAFIEYLIAGGPSSGAPPPS (D-Tyr1, Aib2, αMeL13, Orn16, K17 conjugated to (2-[2-(2-Amino-ethoxy)-ethoxy]-acetyl)2-(γ-Glu)-CO-(CH2)18-CO2H, Aib20, C-terminal amide (NH2)) [Example 346]", "true (1)"],
  ["YXEGTFTSDYSIXLDKKAQXAFIEYLIEGGPSSG (Aib2, αMeL13, K17 conjugated to (2-[2-(2-Amino-ethoxy)-ethoxy]-acetyl)2-(γ-Glu)-CO-(CH2)16-CO2H, Aib20, C-terminal amide (NH2)) [Example 300]", "false (0)"],
  ["XXEGTFTSDYSIXLDXKAQXAFVEYLIAGGPSSGAPPPS (D-Tyr1, Aib2, αMeL13, Orn16, K17 conjugated to (2-[2-(2-Amino-ethoxy)-ethoxy]-acetyl)2-(γ-Glu)-CO-(CH2)18-CO2H, Aib20, C-terminal amide (NH2)) [Example 358]", "true (1)"],
  ["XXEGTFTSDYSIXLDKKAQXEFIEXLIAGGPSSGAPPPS (D-Tyr1, Aib2, αMeL13, K17 conjugated to (2-[2-(2-Amino-ethoxy)-ethoxy]-acetyl)2-(γ-Glu)-CO-(CH2)16-CO2H, Aib20, αMeY25, C-terminal amide (NH2)) [Example 374]", "false (0)"],
  ["XXEGTXTSDYSIXLDKKAQXAFIEYLIEGGPSSGAPPPS (not fully specified; D-Tyr1, Aib2, αMeF6, αMeL13, K17 conjugated to (2-[2-(2-Amino-ethoxy)-ethoxy]-acetyl)2-(γ-Glu)-CO-(CH2)18-CO2H, Aib20, C-terminal amide (NH2)) [Example 335]", "false (0)"]
]}

Q: Would you kindly verify if hGLP1R B-Arrestin2 % Top of XXEGTFTSDYSIXLDKKAQXAFIEXLIAGGPSSGAPPPS (D-Tyr1, Aib2, αMeL13, K17 conjugated to (2-[2-(2-Amino-ethoxy)-ethoxy]-acetyl)-(γ-Glu)-CO-(CH2)18-CO2H, Aib20, αMeY25, C-terminal amide (NH2)) [Example 373] is strictly less than 30%?
Result: true (1)

Q: Would you kindly verify if hGLP1R B-Arrestin2 % Top of YXEGTFTSDYSIXLDEKAQXAFIEYLIAGGPSSGAPPPS (Aib2, αMeL13, K17 conjugated to (2-[2-(2-Amino-ethoxy)-ethoxy]-acetyl)2-(γ-Glu)-CO-(CH2)18-CO2H, Aib20, C-terminal amide (NH2)) [Example 332] is strictly less than 30%?
Result: false (0)

Q: Would you kindly verify if hGLP1R B-Arrestin2 % Top of YXEGTFTSDYSIXLDKKAQXEFIEYLIEGGPSSGAPPPS (Aib2, αMeL13, K17 conjugated to (2-[2-(2-Amino-ethoxy)-ethoxy]-acetyl)2-(γ-Glu)-CO-(CH2)18-CO2H, Aib20, C-terminal amide (NH2)) [Example 333] is strictly less than 30%?
Result: false (0)
